System: HCC827
Assay: cells
Format: functional, cell-based
Settings: Homo sapiens, HCC827, 24 h
Description: Antiproliferative activity against human HCC827 cells assessed as inhibition of cell growth incubated for 24 hrs by CCK-8 assay
observed_property: IC50 (µM)
Field format: number, assumed µM, no unit text.

COC(=O)[C@H](CS[C@H](CC=C(C)C)C1=CC(=O)c2c(O)ccc(O)c2C1=O)NC(=O)CCCC[C@@H]1CCSC(c2ccc(Cl)cc2)S1 (stereo partly specified) : 10.9
COC(=O)[C@H](CS[C@H](CC=C(C)C)C1=CC(=O)c2c(O)ccc(O)c2C1=O)NC(=O)CCCC[C@@H]1CCSC(c2ccc(C)cc2)S1 (stereo partly specified) : 10.4
COC(=O)[C@H](CS[C@H](CC=C(C)C)C1=CC(=O)c2c(O)ccc(O)c2C1=O)NC(=O)CCCC[C@@H]1CCSC(c2cccc(C(F)(F)F)c2)S1 (stereo partly specified) : 4.34
COC(=O)[C@H](CS[C@H](CC=C(C)C)C1=CC(=O)c2c(O)ccc(O)c2C1=O)NC(=O)CCCC[C@@H]1CCSC(c2ccccc2)S1 (stereo partly specified) : 6.09
COC(=O)[C@H](CS[C@H](CC=C(C)C)C1=CC(=O)c2c(O)ccc(O)c2C1=O)NC(=O)CCCC[C@@H]1CCSC(c2cccc(Cl)c2Cl)S1 (stereo partly specified) : 16.6

Kindly consider the entry below.
[ask] Request the reported IC50 associated with COC(=O)[C@H](CS[C@H](CC=C(C)C)C1=CC(=O)c2c(O)ccc(O)c2C1=O)NC(=O)CCCC[C@@H]1CCSC(c2ccc(OCc3ccccc3)cc2)S1 (stereo partly specified)
[reply] 19.3
